target: MKNK1 (Homo sapiens, UniProt Q9BUB5, T385D); construct: GST (N); purchased Carna Biosciences 02-145; host or cells: insect cells (baculovirus expression system); assay: MKNK1 kinase assay (MKNK1 TR-FRET assay); format: biochemical; settings: Table 1c; 10 μM ATP, 15 min preincubation
Sequence (Q9BUB5 1-424 isoform Q9BUB5-2 T344D): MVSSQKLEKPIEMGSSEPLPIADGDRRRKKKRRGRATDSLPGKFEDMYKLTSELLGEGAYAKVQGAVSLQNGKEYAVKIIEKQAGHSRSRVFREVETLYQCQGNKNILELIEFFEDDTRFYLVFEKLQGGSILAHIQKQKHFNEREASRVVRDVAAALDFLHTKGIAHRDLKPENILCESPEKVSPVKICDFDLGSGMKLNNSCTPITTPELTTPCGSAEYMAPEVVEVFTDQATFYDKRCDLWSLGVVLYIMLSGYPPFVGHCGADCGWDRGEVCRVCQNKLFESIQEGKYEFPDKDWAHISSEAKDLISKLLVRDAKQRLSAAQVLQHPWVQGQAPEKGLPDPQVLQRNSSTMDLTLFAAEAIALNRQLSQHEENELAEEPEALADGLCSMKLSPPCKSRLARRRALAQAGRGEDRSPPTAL
Recorded metric: IC50 (nM)

Worked examples, 3 compounds total:
{"columns": ["Compound", "Value unit", "IC50"],
 "data": [
  ["CCN(CCOC)c1nccc2oc(-c3cnc4ccc(OC[C@@H]5CCC(=O)N5)nn34)cc12 [III-86]", "nM", 0.7],
  ["CCN(CCOC(C)(C)C)c1nccc2oc(-c3cnc4ccc(OC[C@H](C)N)nn34)cc12 [III-26]", "nM", 1.7],
  ["O=C1CC[C@H](COc2ccc3ncc(-c4cc5c(N6CCNCC6)nccc5o4)n3n2)N1 [III-71]", "nM", 2]
]}

[1] CC(C)(C)[Si](C)(C)OC[C@H]1CCCN1c1nccc2oc(-c3cnc4ccc(OC[C@H]5CCC(=O)N5)nn34)cc12 [III-66]
[2] CCN(CCOC)c1nccc2oc(-c3cnc4ccc(OC[C@@H](C)N)nn34)cc12 [III-4]
Given the two records 1 and 2 , choose the one whose IC50 value is lower. Reply with the label of the item you choose.
2
(2: 0.6 nM, 1: 4.2 nM)

[1] CN(CCCN1CCCC1)c1nccc2oc(-c3cnc4ccc(OCCCS(C)(=O)=O)nn34)cc12 [III-47]
[2] CN1CCN(c2nccc3oc(-c4cnc5ccc(O[C@H]6C[C@@H](N)C6)nn45)cc23)CC1 [III-96]
Given the two records 1 and 2 , choose the one whose IC50 value is lower. Reply with the label of the item you choose.
2

[I] CCN(CCOC)c1nccc2oc(-c3cnc4ccc(OCC5CCCCN5)nn34)cc12 (stereo not drawn) [III-41]
[II] COC[C@H]1CCCN1c1nccc2oc(-c3cnc4ccc(OC[C@H]5CCC(=O)N5)nn34)cc12 [III-78]
[III] O=C1CC[C@H](COc2ccc3ncc(-c4cc5c(N6CCOCC6)nccc5o4)n3n2)N1 [III-68]
[IV] CC1(C)CN(c2nccc3oc(-c4cnc5ccc(OC[C@@H]6CCC(=O)N6)nn45)cc23)CCN1 [III-134]
[V] C[C@H](N)COc1ccc2ncc(-c3cc4c(N5CCO[C@H](C)C5)nccc4o3)n2n1 [III-117]
Endpoint returns the given compounds ordered by ascending IC50. Please list each label once, in the requested order.
II, III, IV, I, V
(II: 0.2 nM, III: 0.5 nM, IV: 2 nM, I: 12 nM, V: 21.5 nM)

[P] C[C@@H]1CN(c2nccc3oc(-c4cnc5ccc(O[C@H]6C[C@H](N)C6)nn45)cc23)CCO1 [III-122]
[Q] COC[C@H]1CCCN1c1nccc2oc(-c3cnc4ccc(O[C@H](C)CN)nn34)cc12 [III-31]
Given the two records P and Q , choose the one whose IC50 value is lower. Reply with the label of the item you choose.
Q
(Q: 0.5 nM, P: 12.3 nM)

[1] c1cc2oc(-c3cnc4ccc(OC[C@@H]5COCCN5)nn34)cc2c(N2CCOCC2)n1 [III-36]
[2] CCN(CCOC)c1nccc2oc(-c3cnc4ccc(OCCCS(C)(=O)=O)nn34)cc12 [III-50]
Given the listed records, identify the one among 1 and 2 with higher IC50. Reply with the label of the item you choose.
1
(1: 11.6 nM, 2: 1.4 nM)

[a] CC1(C)CN(c2nccc3oc(-c4cnc5ccc(OCCCS(C)(=O)=O)nn45)cc23)CCN1 [III-131]
[b] C[C@@H]1CN(c2nccc3oc(-c4cnc5ccc(OC[C@@H]6CCC(=O)N6)nn45)cc23)CCO1 [III-125]
Given the listed records, identify the one among a and b with higher IC50. Reply with the label of the item you choose.
a

[a] O=C1CC[C@H](COc2ccc3ncc(-c4cc5c(N6CCC[C@@H]6CO)nccc5o4)n3n2)N1 [III-67]
[b] COc1ccc2ncc(-c3cc4c(N5CCOC(C)(C)C5)nccc4o3)n2n1 [III-146]
[c] C[C@H](CN)Oc1ccc2ncc(-c3cc4c(N5CCOCC5)nccc4o3)n2n1 [III-30]
[d] CCN(CCOC)c1nccc2oc(-c3cnc4ccc(OC[C@@H]5CCCN5)nn34)cc12 [III-139]
Endpoint returns the given compounds ordered by ascending IC50. Please list each label once, in the requested order.
d, c, a, b

[A] C[C@@H]1CN(c2nccc3oc(-c4cnc5ccc(OCCCS(C)(=O)=O)nn45)cc23)C[C@H](C)O1 [III-53]
[B] COC[C@@H]1CCCN1c1nccc2oc(-c3cnc4ccc(O[C@H](C)CN)nn34)cc12 [III-136]
Given the two records A and B , choose the one whose IC50 value is lower. Reply with the label of the item you choose.
A

----------
target: MKNK1 (Homo sapiens, UniProt Q9BUB5, T385D); construct: GST (N); purchased Carna Biosciences 02-145; host or cells: insect cells (baculovirus expression system); test: MKNK1 kinase assay (MKNK1 TR-FRET assay); type: biochemical; details: Table 1b; 10 μM ATP, 15 min preincubation
pIC50: −log10 of the molar value.
Recorded metric: pIC50

Worked examples, 3 molecules total:
{"columns": ["Substance smiles", "pIC50"],
 "data": [
  ["C[C@@H]1CN(c2cccc3oc(-c4cnc5ccc(OC[C@@H]6CCC(=O)N6)nn45)cc23)CCO1", 7.80],
  ["c1cc(N2CCOCC2)c2cc(-c3cnc4ccc(OC[C@H]5CNCCO5)nn34)oc2c1", 8.07],
  ["C[C@@H](N)COc1ccc2ncc(-c3cc4c(N5CCOC[C@@H]5C)cccc4o3)n2n1", 7.64]
]}

[1] CC1(C)CN(c2cccc3oc(-c4cnc5ccc(O[C@H]6C[C@H](N)C6)nn45)cc23)CCO1
[2] CC1(C)CN(c2cccc3oc(-c4cnc5ccc(OC[C@@H]6CCC(=O)N6)nn45)cc23)CCN1
Given the two records 1 and 2 , choose the one whose pIC50 value is lower. Reply with the label of the item you choose.
1
(1: 7.56, 2: 8.64)

----------
target: MKNK1 (Homo sapiens, UniProt Q9BUB5, T385D); construct: GST (N); purchased Carna Biosciences 02-145; host or cells: insect cells (baculovirus expression system); assay: MKNK1 kinase assay (MKNK1 TR-FRET assay); type: biochemical; settings: Table 1b; 10 μM ATP, 15 min preincubation
pIC50: −log10 of the molar value.
Recorded metric: pIC50

Worked examples, 2 molecules total:
{"columns": ["Substance smiles", "Measured target", "Recorded metric", "Reported"],
 "data": [
  ["C[C@@H]1CNCCN1c1cccc2oc(-c3cnc4ccc(OC[C@@H]5CCC(=O)N5)nn34)cc12", "MKNK1 (Homo sapiens, UniProt Q9BUB5, T385D)", "pIC50", 8.29],
  ["CS(=O)(=O)CCCOc1ccc2ncc(-c3cc4c(N5CCN(c6ccccc6)CC5)cccc4o3)n2n1", "MKNK1 (Homo sapiens, UniProt Q9BUB5, T385D)", "pIC50", 7.62]
]}

[A] COC[C@H]1CCCN1c1cccc2oc(-c3cnc4ccc(O[C@H]5C[C@H](N)C5)nn34)cc12
[B] CC1(C)CN(c2cccc3oc(-c4cnc5ccc(OC[C@@H]6CCC(=O)N6)nn45)cc23)CCO1
[C] C[C@H](N)COc1ccc2ncc(-c3cc4c(N5CCO[C@H](C)C5)cccc4o3)n2n1
[D] CN1CCN(c2cccc3oc(-c4cnc5ccc(OC[C@H]6CCC(=O)N6)nn45)cc23)CC1
[E] COc1ccc2ncc(-c3cc4c(N5CCNC[C@@H]5C)cccc4o3)n2n1
# rank_down: sort by pIC50, max first Please list each label once, in the requested order.
D, A, E, B, C

[I] CCN(CCOC)c1cccc2oc(-c3cnc4ccc(OCCCS(C)(=O)=O)nn34)cc12
[II] COC[C@H]1CCCN1c1cccc2oc(-c3cnc4ccc(OC)nn34)cc12
Given the listed records, identify the one among I and II with higher pIC50. Reply with the label of the item you choose.
I
(I: 8.70, II: 8.19)

----------
biological target: MKNK1 (Homo sapiens, UniProt Q9BUB5, T385D); construct: GST (N); purchased Carna Biosciences 02-145; host or cells: insect cells (baculovirus expression system); experiment: MKNK1 kinase assay (MKNK1 TR-FRET assay); type: biochemical; details: Table 1b; 10 μM ATP, 15 min preincubation
Recorded metric: IC50 (nM)

Worked examples, 2 compounds total:
{"columns": ["Substance smiles", "IC50 / nM"],
 "data": [
  ["COC[C@H]1CCCN1c1cccc2oc(-c3cnc4ccc(OC[C@H]5CNCC(=O)N5)nn34)cc12", 7],
  ["O=C1CC[C@H](COc2ccc3ncc(-c4cc5c(N6CCOCC6)cccc5o4)n3n2)N1", 15]
]}

[I] N[C@H]1C[C@H](Oc2ccc3ncc(-c4cc5c(N6CCN(c7ccccc7)CC6)cccc5o4)n3n2)C1
[II] O=C1CC[C@H](COc2ccc3ncc(-c4cc5c(N6CCN(c7ccccc7)CC6)cccc5o4)n3n2)N1
Given the listed records, identify the one among I and II with higher IC50. Reply with the label of the item you choose.
I
(I: 13 nM, II: 7 nM)

[1] C[C@@H]1CN(c2cccc3oc(-c4cnc5ccc(OC[C@H]6CCC(=O)N6)nn45)cc23)CCO1
[2] C[C@H]1COCCN1c1cccc2oc(-c3cnc4ccc(OC[C@@H]5CCC(=O)N5)nn34)cc12
Given the two records 1 and 2 , choose the one whose IC50 value is lower. Reply with the label of the item you choose.
1
